Listing: Enzyme Activity Endpoint Assay (purified): Fab′2 of selected proteins
Target: pooled human IgG
outcomeMeasure: Enzyme Activity Endpoint Assay (purified): Fab′2

PRT-60 (protein) MANQEIRYSEVTPYHVTSVWTKGVTPPANFTQGEDVFHAPYVANQGWYDITKTFNGKDDLLCGAATAGNMLHWWFDQNKDQIKRYLEEHPEKAKINFNGEQMFDVKEAIDTKNHQLDSKLFEYFKEKAFPYLSTKHLGVFPDHVIDMFINGYRLSLTNHGPTPVKEGSKDPRGGIFDAVFGRGDQSKLLTSRHDFKEKNLKEISDLIKKELTEGKALGLSHTYANVRINHVINLWGADFDSNGNLKAIYVTDSDSNASIGMKKYFVGVNSAGKVAISAKEIKEDNIGAQVLGLFTLSTGQDSWNQTN ... 52 ng/µL
PRT-572 (protein) MANQEIRYSEATPSHITSVWTKGVTPPTQFIQNEDVLHAPYIANQGWYDITKTFNGKDDLLCGAATAGNMLHWWFDQNKEQIENYLKKHPEKQKINFNGEQMFDVKEAIDTKDSQTDSALFSYFKDKAFPYLSTKHLGVFPDHVIDMFINGYRLSLTNHGPTPVKEQTKDPRGGIFDAVFTRGDQSKLLTSRHDFKEKTLNEISQLIKQELTEGKALGLSHTYANVRINHVINLWGADFNAEGNLEAIYVTDSDSNASIGMKKYYVGVNSAGKVAISAKEIEGDNIGAQVLGLFTLSTGQDIWQQTNLEHHHHHH ... 936 ng/µL
PRT-66 (protein) MANQEIRYSEVTPYHVTSVWTKGVTPPANFTQGEDVFHAPYVANQGWYDITKTFNGKDDLLCGAATAGNMLHWWFDQNKDYIKRYLEEHPEKQKINFNGEQMFDVKEAIDTKNHQLDSKLFEYFKEKAFPYLSTKHLGVFPDHVIDMFINGYRLSLTNHGPTPVKEGSKDPRGGIFDAVFTRGDQSKLLTSRHDFKEKNLKEISDLIKKELTEGKALGLSHTYANVRINHVINLWGADFDSNGNLKAIYVTDSDSNASIGMKKYFVGVNSAGKVAISAKEIKEDNIGAQVLGLFTLSTGQDSWNQTN ... 49 ng/µL
PRT-81 (protein) MANQEIRYSEVTPSHVTSVWTKGVTPPADFTQGEDVFHAPYVANQGWYDITKTFNGKDNLLCGAATAGNMLHWWFDQNKEQIENYLKKHPEKQKIMFGDQELLDVRKVINTKDSQTNSALFNYFRDKAFPNLSARRLGVMPDLVLDMFINGYYLNLTKTQTTDVNRTYQTKDKRGGIFDAVFTRGDQSKLLTSRHDFKEKTLKEISDLIKQELTEGKALGLSHTYANVRINHVINLWGADFDSNGNLKAIYVTDSDSNASIGMKKYFVGVNSAGKVAISAKEITEDNIGAQVLGLFTLSTGKDQWNQTN ... 14 ng/µL
